assay.target: Albumin (Bos taurus) (UniProt P02769)
Sequence (P02769 whole entry, looked up): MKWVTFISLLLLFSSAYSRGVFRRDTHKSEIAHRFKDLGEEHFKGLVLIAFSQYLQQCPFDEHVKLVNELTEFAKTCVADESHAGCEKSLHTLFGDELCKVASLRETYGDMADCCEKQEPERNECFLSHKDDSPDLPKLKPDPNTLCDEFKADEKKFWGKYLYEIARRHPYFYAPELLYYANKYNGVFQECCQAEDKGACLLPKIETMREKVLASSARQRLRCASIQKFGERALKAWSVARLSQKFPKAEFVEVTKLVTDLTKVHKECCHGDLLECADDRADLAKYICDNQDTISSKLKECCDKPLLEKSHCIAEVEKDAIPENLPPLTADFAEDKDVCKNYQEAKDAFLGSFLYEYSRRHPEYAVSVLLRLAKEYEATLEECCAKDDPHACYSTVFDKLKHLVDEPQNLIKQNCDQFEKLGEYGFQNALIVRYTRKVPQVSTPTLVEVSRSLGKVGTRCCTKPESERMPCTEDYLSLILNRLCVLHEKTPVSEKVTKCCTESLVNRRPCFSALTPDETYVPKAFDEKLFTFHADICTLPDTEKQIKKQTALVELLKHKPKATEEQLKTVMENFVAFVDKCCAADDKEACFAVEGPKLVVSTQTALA
procedure.summary: compounds binding labelled BSA control protein – biochemical, small-molecule microarray, Alexa647 label, 635/667 nm fluorescence, artefact control for SMM control protein annotation, profiling panel (AID 1118);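 further: score merges 667 nm emission intensity and signal-to-noise per printed compound spot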
assay.setup: BSA-A647 binding, fluorescence 635 nm, higher = more signal
Label fulfilled when composite z-score >= 0.2; otherwise not fulfilled.

Solved cases below.
>  <compound>
CN(C)CCCC[C@@H]1NC(=O)[C@H]2C[C@@H](C(=O)O)[C@@H](c3ccc(O)cc3)N2C1=O

>  <group>
fulfilled

$$$$
>  <compound>
C=CCOC(=O)[C@H]1[C@@H]2C(=O)O[C@@H](c3ccccc3)[C@@H](c3ccccc3)N2[C@@H](c2ccc(OCCOC(=O)[C@H]3C[C@H]4C(=O)N[C@@H](CC(C)C)C(=O)N4[C@H]3c3ccc(O)cc3)cc2)[C@]12C(=O)Nc1ccccc12

>  <group>
not fulfilled

$$$$
>  <compound>
N#Cc1ccc(C(O)C2C=CC3C(=O)NC(=O)C3N2Nc2ccc(Cl)cc2Cl)cc1 (stereo unspecified)

>  <group>
fulfilled

$$$$
>  <compound>
CC(C)[Si](C#CCCc1ccccc1)(O[C@H](c1ccccc1)c1cn(Cc2ccccc2)nn1)C(C)C

>  <group>
fulfilled

$$$$
>  <compound>
C=CCNC(=O)[C@H]1[C@@H]2C(=O)O[C@@H](c3ccccc3)[C@@H](c3ccccc3)N2[C@@H](c2ccc(OCCO)cc2)[C@]12C(=O)Nc1ccccc12

>  <group>
fulfilled

$$$$

Would you kindly look at the next entry?
Req: Check if composite z-score >= 0.2 (inclusive). Item: C=CCC(OC(C)=O)[C@@H]1[C@@H](N(Cc2cccc3ccccc23)C(=O)Cc2ccc(OC)cc2)c2cc(OCCCO)ccc2N1C(=O)Cc1ccc2ccccc2c1 (stereo partly specified)
Resp: not fulfilled

----------
assay.target: Dickkopf-related protein 1 (Homo sapiens)
procedure.summary: small molecules binding DKK1 protein – biochemical, small-molecule microarray, 635 nm fluorescence scan, primary screen (AID 1106);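 further: score merges emission near 667 nm with signal to noise over three replicate slides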
assay.setup: higher = more signal
Would you mind labelling by composite z-score? At or over -0.3 is YES, under is NO.

Solved entries:
>  <molecule>
[N-]=[N+]=Nc1ccccc1[C@@H]1OC(c2ccc(OCCCO)cc2)=N[C@]1(CCS(=O)(=O)c1ccccc1)C(=O)NCC(O)CO (some centres not stated)

>  <group>
NO

$$$$
>  <molecule>
CO[C@H]1O[C@H](CO)[C@@H](OC(=O)Nc2ccccc2)[C@H](OC(=O)Nc2ccccc2)[C@H]1OC(=O)Nc1ccccc1

>  <group>
YES

$$$$
>  <molecule>
CC(C)(C)OC(=O)CC[C@]1(C(=O)NCC(O)CO)N=C(c2ccc(OCCCO)cc2)O[C@H]1c1ccccc1N=[N+]=[N-] (some centres not stated)

>  <group>
YES

$$$$

Req: Reported composite z-score at or above -0.3? CCOC(=O)C1=CCC(c2cc3ccccc3[nH]2)N(CCN2CC(C(=O)OCC)=CCC2c2cc3ccccc3[nH]2)C1 (configuration not stated)
Resp: YES

Req: Is composite z-score at least -0.3? Consider "CO[C@H]1O[C@H](CO)[C@@H](OC(=O)Nc2ccccc2-c2ccccc2)[C@H](OC(=O)Nc2ccccc2)[C@H]1OC(=O)Nc1ccccc1"
Resp: YES

Req: Decide: is the reported value of composite z-score for "COC(=O)[C@@]1(Cc2ccccc2)[C@H]2c3cc(C(=O)N(C)C)n(Cc4ccc(C(F)(F)F)nc4)c3C[C@H]2CN1C(=O)c1ccccc1" equal to or greater than -0.3?
Resp: NO

Req: Tell me whether composite z-score is at least -0.3 here: "C=CCNC(=O)[C@H]1[C@@H]2C(=O)O[C@@H](c3ccccc3)[C@@H](c3ccccc3)N2[C@@H](c2ccc(OCCO)cc2)[C@]12C(=O)Nc1ccccc12"
Resp: NO
